Assay: clinical
Conditions: human, in vivo, Ctrough in PBMC relative to plasma, throughout the protocol
reportedEndpoint: Kp

Provide one value: measured Kp of C[C@@H]1CCO[C@H]2Cn3cc(C(=O)NCc4ccc(F)cc4F)c(=O)c(O)c3C(=O)N12 [DTG, dolutegravir]
~0.25

----------
Experiment: clinical
Conditions: human, in vivo, AUC0-24 PBMC
reportedEndpoint: AUC(0-t)

Recorded results for 2 molecules are shown here.
* CC(C)c1nc(CN(C)C(=O)N[C@H](C(=O)N[C@@H](Cc2ccccc2)C[C@H](O)[C@H](Cc2ccccc2)NC(=O)OCc2cncs2)C(C)C)cs1 | 9830 ng·h/mL
* C[C@@H]1CCO[C@H]2Cn3cc(C(=O)NCc4ccc(F)cc4F)c(=O)c(O)c3C(=O)N12 | 14900 ng·h/mL

Then this molecule:
Note down AUC(0-t) recorded for `CC(C)CN(C[C@@H](O)[C@H](Cc1ccccc1)NC(=O)O[C@H]1CO[C@H]2OCC[C@H]21)S(=O)(=O)c1ccc(N)cc1`
17500 ng·h/mL

Reference source: paper PMC9211429
